Target: T1, human TGFβ3, mature dimeric form (human, UniProt P10600 301-412)
T1 sequence: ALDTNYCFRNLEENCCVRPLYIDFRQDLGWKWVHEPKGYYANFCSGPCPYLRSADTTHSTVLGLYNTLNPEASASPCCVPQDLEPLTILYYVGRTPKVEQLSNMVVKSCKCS
Experiment: cell-based or functional assay
observation type: HEKBlue TGFβ blocking IC50

binder: h6F12.v1.7 (antibody, human IgG1, kappa, N297G, V domains shown) VH: EVTLKESGPVLVKPTETLTLTCTVSGFSLTTYNVHWVRQPPGKALEWLGLIWNTGGTRYNSALKSRLTISKDTSKSQVVLTMTNMDPVDTATYYCARDPVPNKWHFDFWGPGTLVTVSS VL: DIQMTQSPSTLSASVGDRVTITCLASEDIYSNLAWYQQKPGKSPKLLIYDARSLQDGVPSRFSGSESGPEYTLTISSLQPDDFATYFCQQHHAYPFTFGQGTKVEIKR
readout value: > 200 nM

binder: h6F12.v1.9 (antibody, V domains shown) VH: EVTLKESGPVLVKPTETLTLTCTVSGFSLTTYNVHWVRQPPGKALEWMGLIWNTGGTRYNSALKSRLTISKDTSKSQVVLTMTNMDPVDTATYYCARDPVPNKWHFDFWGRGTLVTVSS VL: DIQMTQSPSTLSASVGDRVTITCLASEDIYSNLAWYQQKPGKSPKLLIYDARSLQDGVPSRFSGSESGPEYTLTISSLQPDDFATYFCQQHHAYPFTFGQGTKVEIK
readout value: > 200 nM

Now for a further binder.
Given h6F12.v1.3 (antibody, human IgG1, kappa, N297G, V domains shown) VH: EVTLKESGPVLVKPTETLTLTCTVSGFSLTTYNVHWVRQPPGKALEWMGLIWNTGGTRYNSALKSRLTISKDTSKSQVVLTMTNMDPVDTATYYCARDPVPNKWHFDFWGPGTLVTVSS VL: DIQMTQSPSTLSASVGDRVTITCLASEDIYSNLAWYQQKPGKSPKLLIYDARSLQDGVPSRFSGSESGTEYTLTISSLQPDDFATYFCQQHHAYPFTFGQGTKVEIKR , state its recorded HEKBlue TGFβ blocking IC50.
> 200 nM
